STUDY_TARGET: CYP3A4 (CYP3A) (Homo sapiens);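 further: inhibition of CYP3A-mediated 1-hydroxymidazolam formation after 10 min incubation with NADPH, quantified by HPLC MS relative to metabolite produced without test compound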
Sequence (P08684 2-503): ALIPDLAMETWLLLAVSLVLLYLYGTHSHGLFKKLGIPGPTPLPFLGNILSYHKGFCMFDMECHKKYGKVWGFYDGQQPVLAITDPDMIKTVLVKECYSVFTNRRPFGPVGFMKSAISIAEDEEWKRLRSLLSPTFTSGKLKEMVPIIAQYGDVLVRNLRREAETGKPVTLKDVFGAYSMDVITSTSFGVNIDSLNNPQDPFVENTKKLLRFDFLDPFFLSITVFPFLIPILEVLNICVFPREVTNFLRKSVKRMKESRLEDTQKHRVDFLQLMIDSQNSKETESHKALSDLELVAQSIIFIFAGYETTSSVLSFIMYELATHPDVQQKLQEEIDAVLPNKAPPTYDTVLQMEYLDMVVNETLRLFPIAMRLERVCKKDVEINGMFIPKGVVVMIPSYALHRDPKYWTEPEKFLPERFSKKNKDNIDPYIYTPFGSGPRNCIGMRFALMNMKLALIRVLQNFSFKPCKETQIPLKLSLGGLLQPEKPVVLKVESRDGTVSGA
PROTOCOL: in vitro
CONDITION: microsomes, pH 7.4
pIC50: −log10 of the molar value.
pIC50 overview

| MOLECULE | pIC50 |
| --- | --- |
| COCC(=O)N[C@@H](Cc1cc(F)cc(-c2nccs2)c1)[C@H](O)CN[C@H]1CC2(CCC2)Oc2cnc(CC(C)(C)C)cc21 [Example 782] | 6.52 |
| CC(=O)N[C@@H](Cc1cc(F)cc(-c2cncs2)c1)[C@H](O)CN[C@H]1CC2(CCC2)Oc2ncc(CC(C)(C)C)cc21 [Example 671] | 7.00 |
| COCC(=O)N[C@@H](Cc1ccc(F)cc1)[C@H](O)CN[C@H]1CC2(CCC2)Oc2c1cc(CC(C)(C)C)nc2-c1nccs1 [compound 451] | 6.22 |
| CCCc1cnc2c(c1)[C@@H](NC[C@H](O)[C@@H](Cc1cc(F)cc(-c3nccs3)c1)NC(=O)COC)CC1(CCC1)O2 [compound 833] | 6.52 |
| CO[C@H](C)C(=O)N[C@@H](Cc1cc(F)cc(F)c1)[C@H](O)CN[C@H]1CC2(CCC2)Oc2c(-c3cncs3)cc(CC(C)C)cc21 [compound 491] | 6.70 |
| CO[C@H](C)C(=O)N[C@@H](Cc1cccc(-c2nccs2)c1F)[C@H](O)CN[C@H]1CC2(CCC2)Oc2ncc(CC(C)(C)C)cc21 [compound 909] | 7.00 |
| COCC(=O)N[C@@H](Cc1cccc(-c2ncc(C)s2)c1)[C@H](O)CN[C@H]1CC2(CCC2)Oc2ncc(CC(C)(C)C)cc21 [compound 759] | 6.52 |
| CNc1nc(CC(C)(C)C)cc2c1OC1(CCC1)C[C@@H]2NC[C@@H](O)[C@H](Cc1cc(F)cc(-c2nccs2)c1)NC(=O)COC [Example 847] | 6.40 |

###

pIC50 overview
STUDY_TARGET: Beta Secretase enzyme (BACE) (Homo sapiens, UniProt P56817)
Sequence (P56817 46-501): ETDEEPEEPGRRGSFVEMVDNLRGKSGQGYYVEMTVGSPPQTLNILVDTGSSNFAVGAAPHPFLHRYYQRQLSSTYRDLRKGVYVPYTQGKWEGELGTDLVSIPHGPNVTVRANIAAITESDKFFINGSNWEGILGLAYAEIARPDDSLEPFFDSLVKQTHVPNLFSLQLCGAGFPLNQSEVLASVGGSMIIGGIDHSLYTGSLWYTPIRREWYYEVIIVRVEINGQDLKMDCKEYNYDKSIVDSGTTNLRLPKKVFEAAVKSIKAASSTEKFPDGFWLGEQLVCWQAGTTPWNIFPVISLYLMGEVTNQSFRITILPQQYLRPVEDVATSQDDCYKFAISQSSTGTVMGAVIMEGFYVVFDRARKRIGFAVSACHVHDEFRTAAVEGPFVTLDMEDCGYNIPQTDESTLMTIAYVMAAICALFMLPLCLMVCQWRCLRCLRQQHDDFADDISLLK
PROTOCOL: In vitro enzymatic BACE FRET (fluorescence resonance energy transfer) assay;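 further: fluorescence read after 1 h with 50 nM quenched peptide substrate spanning the BACE cleavage site, in pH 4.2 acetate buffer containing 10% DMSO and nonionic detergent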
Type: biochemical
CONDITION: Table 1; read-out: BACE1 FRET assay
pIC50: −log10 of the molar value.
MEASUREMENT_TYPE: pIC50

| MOLECULE | ASSAY_RESULT |
| --- | --- |
| CC(=O)N[C@@H](Cc1ccc2c(c1)OCO2)[C@H](O)CN[C@H]1CC2(CCC2)Oc2ncc(C[C@@H](C)C(F)(F)F)cc21 [compound 321] | 6.87 |
| CC(=O)N[C@@H](Cc1ccc(F)c(Br)c1)[C@H](O)CN[C@H]1CC2(CCC2)Oc2ncc(OC(C)(C)C)cc21 [compound 353] | 6.92 |
| CC(=O)N[C@@H](Cc1cccc(F)c1)[C@H](O)CN[C@H]1CC2(CCC2)Oc2ncc(C[C@@H](C)C(F)(F)F)cc21 [compound 315] | 8.21 |
| CO[C@H](C)C(=O)N[C@@H](Cc1cc(F)cc(F)c1)[C@H](O)CN[C@H]1CC2(CCC2)Oc2ncc(CC(F)(F)F)cc21 [compound 346] | 7.99 |
| COCC(=O)N[C@@H](Cc1cccc(F)c1)[C@H](O)CN[C@H]1CC2(CCC2)Oc2ncc(CC3(C(F)(F)F)CC3)cc21 [compound 327] | 8.01 |
| CC(=O)N[C@@H](Cc1ccc(F)cc1)[C@H](O)CNC1c2cc(CC(C)(C)C)cnc2OC2(CCC2)C1F (some centres unmarked) [compound 355] | 6.93 |
| COCC(=O)N[C@@H](Cc1cccc(C#N)c1)[C@H](O)CN[C@H]1CC2(CCC2)Oc2ncc(CC(F)(F)F)cc21 [compound 347] | 7.98 |
| COCC(=O)N[C@@H](Cc1ccc(F)cc1)[C@H](O)CN[C@H]1CC2(CCC2)Oc2ncc(CC(C)C)cc21 [compound 332] | 7.96 |
| CO[C@H](C)C(=O)N[C@@H](Cc1cccc(F)c1)[C@H](O)CN[C@H]1CC2(CCC2)Oc2ncc(CC(F)(F)F)cc21 [compound 344] | 8.05 |
| CC(=O)N[C@@H](Cc1ccc2c(c1)OCO2)[C@H](O)CN[C@H]1CC2(CCC2)Oc2ncc(C[C@H](C)C(F)(F)F)cc21 [compound 320] | 6.81 |
| CO[C@H](C)C(=O)N[C@@H](Cc1ccc2c(c1)OCO2)[C@H](O)CN[C@H]1CC2(CCC2)Oc2nc(F)c(CC(C)C)cc21 [compound 336] | 6.87 |

Sourced from patent US8163909B2
